# credit: patent US9663530B2

Would you kindly list Ki for each of these compounds?
Target: mouse TAAR1 (Mus musculus (Mouse), UniProt Q923Y8)
Sequence (Q923Y8 whole entry): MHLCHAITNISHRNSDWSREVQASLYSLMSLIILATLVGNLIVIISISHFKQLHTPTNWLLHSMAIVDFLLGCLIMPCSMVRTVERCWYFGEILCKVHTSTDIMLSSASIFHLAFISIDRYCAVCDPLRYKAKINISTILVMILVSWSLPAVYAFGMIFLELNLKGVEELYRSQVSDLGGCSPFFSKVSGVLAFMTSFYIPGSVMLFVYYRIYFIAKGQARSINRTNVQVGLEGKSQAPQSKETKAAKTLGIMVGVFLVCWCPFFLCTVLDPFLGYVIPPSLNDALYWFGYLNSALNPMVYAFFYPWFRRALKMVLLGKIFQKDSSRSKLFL
Test: Radioligand binding assay on mouse TAAR1
Settings: mouse TAAR1 (first value of the cell); membranes of HEK-293 cells stably expressing mouse TAAR1; read-out: Ki (μM) mouse/rat

Example entries and their recorded answers appear below.
| compound | system | measurement.label | result |
| --- | --- | --- | --- |
| FC(F)(F)c1cnc(Nc2ccc(C[C@]34CN[C@H](CO3)C4)cc2)cn1 [Example 32] | mouse TAAR1 (Mus musculus (Mouse), UniProt Q923Y8) | Ki | > 10 µM |
| O=C(Nc1ccc(C[C@@]23CN[C@@H](CO2)C3)cc1)c1[nH]nc(C2CC2)c1Cl [Example 48] | mouse TAAR1 (Mus musculus (Mouse), UniProt Q923Y8) | Ki | 0.0147 µM |
| CCOc1ccc(C(=O)Nc2ccc(C[C@@]34CN[C@@H](CO3)C4)cc2)cc1 [Example 49] | mouse TAAR1 (Mus musculus (Mouse), UniProt Q923Y8) | Ki | 0.0067 µM |
| Clc1ccc(Nc2ccc([C@@]34CN[C@@H](CO3)C4)cc2)nc1 [Example 20] | mouse TAAR1 (Mus musculus (Mouse), UniProt Q923Y8) | Ki | 0.0062 µM |
| O=C(Nc1ccc(C23CCC(CO2)NC3)cc1)c1ccnc(C(F)(F)F)c1 (racemic) [Example 37] | mouse TAAR1 (Mus musculus (Mouse), UniProt Q923Y8) | Ki | 0.0377 µM |

Required: Ki, one value per compound below.
1. O=C(Nc1ccc([C@@]23CN[C@@H](CO2)C3)cc1)c1cccc(Cl)c1 [Example 55]
2. CCOc1ccc(C(=O)Nc2ccc(C34CCC(CO3)NC4)cc2)cn1 (racemic) [Example 12]
3. CCc1ncc(C(=O)Nc2ccc(C[C@@]34CN[C@@H](CO3)C4)cc2)cn1 [Example 50]
4. O=C(Nc1ccc(C23CCC(CO2)NC3)cc1)c1cnc(C2CC2)nc1 (racemic) [Example 14]

["0.0036 µM", "0.0219 µM", "0.226 µM", "0.136 µM"]

Please give Ki, item by item, for the list that follows.
1. CCCc1n[nH]c(C(=O)Nc2ccc(C34CCC(CO3)NC4)cc2)c1Cl (racemic) [Example 34]
2. O=C(Nc1ccc(C[C@]23CN[C@H](CO2)C3)cc1)Nc1cccc(Cl)c1 [Example 2]

["0.0135 µM", "1.35 µM"]

----------
Biological target: UniProt Q923Y8
Assay: Radioligand binding assay on mouse TAAR1
Conditions: mouse TAAR1 (first value of the cell); membranes of HEK-293 cells stably expressing mouse TAAR1; read-out: Ki (μM) mouse/rat
measurement.label: Ki

Reference set (4 entries):
| query.smiles | result |
| --- | --- |
| O=C(Nc1ccc(C[C@]23CN[C@H](CO2)C3)cc1)c1ccc(Cl)cc1 | 0.0853 µM |
| O=C(Nc1ccc(C[C@]23CN[C@H](CO2)C3)cc1)c1ccc(OCC2CC2)cc1 | 0.168 µM |
| O=C(Nc1ccc(Cl)cc1)Nc1ccc(C[C@]23CN[C@H](CO2)C3)cc1 | 1.82 µM |
| Clc1ccc(Nc2ccc(C[C@@]34CN[C@@H](CO3)C4)cc2)nc1 | 0.0158 µM |

Consider the additional molecule presented here.
Item under review: Clc1ccc(Nc2ccc(C[C@]34CN[C@H](CO3)C4)cc2)nc1 . Reported Ki?
2.55 µM
